B1: Activity-dependent neuroprotector homeobox protein, residues 770 to 810; numbered along this chain, Q9H2P0 (parent)
chain: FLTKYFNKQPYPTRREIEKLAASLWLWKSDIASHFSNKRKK

# Variants of: B1
# assayDetails: abundance fitness (aPCA) (normalised: wild type 0, dead -1); higher = more abundant; growth selection in yeast, the domain comes from the species named
# experimentalSetup: Homo sapiens
measuredMetric: abundance fitness

> print(dat)
   mutationlist  observedvalue
1           K8G         -0.217
2           L2T         -0.661
3          K19D         -0.099
4          S23W         -0.091
